Tested on: EKVX
Test: NCI tumour cell line growth inhibition, 48 h
The source made the active and inactive calls. Cut-off read from the data, not from the text of the source: active = GI50 up to about 1.1 µM and inactive = higher.
I'd appreciate it if you could supply GI50 values for the items below.

State the recorded GI50 for this entry: `CCOC(=O)c1nc2ccccc2nc1NCc1ccc(OC)c(OC)c1`
> 100 µM (inactive)

State the recorded GI50 for this entry: C1OCN2c3nonc3N3COCN4c5nonc5N1C2C43 (stereo not given)
> 100 µM (inactive)

State the recorded GI50 for this entry: `COc1ncc(C=C(C#N)C#N)c(OC)n1`
79.8 µM (inactive)

Respectfully, I request GI50 for each entry included below.
1. Cc1ccc([S+]([O-])C[C@](NC(=O)OCc2ccccc2)(Sc2ccccc2)C(F)F)cc1 (stereo not given in full)
2. O=C(COc1ccc(OCC(=O)N2C(=O)CN(c3ccccc3)C2=S)cc1)N1C(=O)CN(c2ccccc2)C1=S
3. CSC1CC2C(CC1(C)SC)C2(C)C (stereo not given)
4. CCN(CC)c1ccc2cc(C(=O)Nc3ccc4[nH]c(C(=O)N5C[C@@H](CCl)c6c5cc(OC(=O)Nc5ccccc5)c5[nH]cc(C)c65)cc4c3)oc2c1
5. O=C(O)Cc1cccc2c(=O)c3cccc([N+](=O)[O-])c3oc12
6. N=C(N)c1ccc(/N=N/c2c(O)ccc3cc(O)ccc23)cc1

13.7 µM (inactive)
> 53.6 µM (inactive)
30.2 µM (inactive)
0.000266 µM (active)
> 100 µM (inactive)
> 100 µM (inactive)

----------
I'd appreciate it if you could supply GI50 values for the items below.
Test system: NCI-H460
Test: NCI tumour cell line growth inhibition, 48 h
Activity calls are given as the source filed them. Cut-off read from the data, not from the text of the source: active = GI50 up to about 1.1 µM and inactive = higher.

Known results for compounds:
State the recorded GI50 for this entry: `O=c1[nH]cc(-c2c[nH]c3ccccc23)nc1-c1c[nH]c2ccccc12`
13.8 µM (inactive)

State the recorded GI50 for this entry: `O=C1Nc2ccc(Cl)cc2C(=O)N2CCC[C@@H]12`
> 100 µM (inactive)

Respectfully, I request GI50 for each entry included below.
1. O=C1C[C@@H]2[C@@H](c3ccccc3)[C@@H]3C(=O)c4ccccc4NC(=O)[C@H]3[C@]2(O)c2ccccc2N1
2. CC(=O)/C(=C/n1c(=S)[nH]c2ccccc21)C(=O)Nc1ccccc1C
3. C1OCN2c3nonc3N3COCN4c5nonc5N1C2C43 (configuration not stated)
4. CCN(CC)CCn1ncc2ccc3c(c(=O)c4cccnc4n3CCN(CC)CC)c21

1: > 100 µM (inactive); 2: > 100 µM (inactive); 3: > 100 µM (inactive); 4: 0.403 µM (active)

----------
Tested on: HCC 2998
Experiment: NCI tumour cell line growth inhibition, 48 h
Active and inactive are the calls of the source. Cut-off read from the data, not from the text of the source: active = GI50 up to about 1.1 µM and inactive = higher. Residues, ends and D or L forms follow the SMILES beside them. *: point of attachment. Boc = CC(C)(C)OC(=O)*
Choose the fitting class; nothing outside label 1 = active, label 0 = inactive is accepted.

Here are 10 molecules together with their reported answers.
Record request — test call for `CS(=O)(=O)c1nc(N)nc2nc[nH]c12`
label 0

Record request — test call for `N=C(/C=C/c1ccc(-c2cn3cc(/C=C/C(=N)N4CCOCC4)ccc3n2)cc1)N1CCOCC1`
label 0

Record request — test call for `CC(C)(C)c1ccc2c(c1)CNCCNCc1cc(C(C)(C)C)ccc1OCC1(CO2)COc2ccc(C(C)(C)C)cc2CNCCNCc2cc(C(C)(C)C)ccc2OC1`
label 1

Record request — test call for `C/C(CC(=O)NCCc1ccccc1)=N\NC(=O)C[n+]1ccccc1`
label 0

Record request — test call for `O=C1N[C@@H]2c3c(Br)sc(Br)c3C(=O)[C@@H]2O1`
label 0

Record request — test call for CCCCCCCC/C=C1\CCC(CN(C)C)C1=O (configuration not stated)
label 0

Record request — test call for CCCCCCCCCCCCP(=O)(O)OCC(N)C(=O)O (configuration not stated)
label 0

Record request — test call for CN1CCCOC(c2ccc(Cl)cc2)O1 (configuration not stated)
label 0

Record request — test call for O=C1C2C3C=CC(C2C(=O)N1COP(=O)(O)O)C1C2C(=O)N(COP(=O)(O)O)C(=O)C2C31 (configuration not stated)
label 0

Record request — test call for COC(=O)C(Cc1c[nH]c2ccccc12)NC(=O)C(Cc1c[nH]c2ccccc12)NC(=O)C(Cc1c[nH]c2ccccc12)NC(=O)C(Cc1c[nH]c2ccccc12)NC(=O)C(Cc1c[nH]c2ccccc12)NC(=O)C(Cc1c[nH]c2ccccc12)NC(=O)OC(C)(C)C (configuration not stated) (Boc-WWWWWW-OMe; configuration not given here)
label 0

More entries:
Record request — test call for `CN(C)c1ccc(C=C2N=C(c3ccccc3)N(c3cc(C(=O)c4ccccc4)ccc3N3C(=O)/C(=C/c4ccc(N(C)C)cc4)N=C3c3ccccc3)C2=O)cc1`
label 0

Record request — test call for `CCNc1ncnc2sc(SCc3ccccc3)nc12`
label 0

Record request — test call for CSC1CC2C(CC1(C)SC)C2(C)C (configuration not stated)
label 0

Record request — test call for `CCCCCCc1ccc(C(=O)NO)cc1`
label 0

Record request — test call for `CCCNc1ncnc2c1ncn2C`
label 0

Record request — test call for C=CCOc1ccc(C2C(C(=O)OCC)C(=O)CC(C)(O)C2C(=O)OCC)cc1OC (configuration not stated)
label 0

Record request — test call for O=C1OC(CC(=O)c2ccc(Cl)cc2Cl)C(Cl)=C1Cl (configuration not stated)
label 0
